tested on: adult female Sprague-Dawley rats; test: rat infusion study: loss/recovery of righting reflex and walk (anaesthetic effect); type: in vivo; conditions: time from end of infusion to independent locomotion
readout.label: Walk Time (s)
Answer with a number only, understood to be in s.

Worked cases, answers included:
INSERT INTO results (compound, observed) VALUES
  ('CCOC(=O)CCCN(C)C1(c2ccccc2Cl)CCCCC1=O.Cl (stereo not drawn) [compound 20]', 0),
  ('CCOC(=O)CCN[C@]1(c2ccccc2Cl)CCCCC1=O.Cl [(S)-C2Et]', 80),
  ('CC(=O)OCCCN[C@]1(c2ccccc2Cl)CCCCC1=O.Cl [(S)-C3OAc]', 983),
  ('CC(C)OC(=O)CCCCNC1(c2ccccc2Cl)CCCCC1=O.Cl (racemic) [rac-C4iPr]', 320),
  ('CC(C)OC(=O)CCN[C@@]1(c2ccccc2Cl)CCCCC1=O.Cl [(R)-C2iPr]', 900),
  ('CC(C)OC(=O)CCN[C@]1(c2ccccc2Cl)CCCCC1=O.Cl [(S)-C2iPr]', 224);

Task: Provide one value: measured Walk Time of CCOC(=O)CCNC1(c2ccccc2Cl)CCCCC1=O.Cl (racemic) [rac-C2Et]
Result: 253

Task: Provide one value: measured Walk Time of CCOC(=O)CCCNC1(c2ccccc2Cl)CCCCC1=O.Cl (racemic) [rac-C3Et]
Result: 170

Task: Provide one value: measured Walk Time of CC(C)OC(=O)CCCNC1(c2ccccc2Cl)CCCCC1=O.Cl (racemic) [rac-C3iPr]
Result: 110

Task: Provide one value: measured Walk Time of CCCOC(=O)CCCCNC1(c2ccccc2Cl)CCCCC1=O.Cl (racemic) [rac-C4nPr]
Result: 90

Task: Provide one value: measured Walk Time of COC(=O)CCCCNC1(c2ccccc2Cl)CCCCC1=O.Cl (racemic) [rac-C4Me]
Result: 126

Task: Provide one value: measured Walk Time of CC(C)OC(=O)CCNC1(c2ccccc2Cl)CCCCC1=O.Cl (racemic) [rac-C2iPr]
Result: 153

###

tested on: adult female Sprague-Dawley rats; test: rat infusion study: pedal withdrawal reflex PWR = 1 (analgesic effect); type: in vivo; conditions: ratio compound/ketamine
criterion met if PWR = 1 Dose, head-to-head ratio to ketamine is below 2. criterion not met if not; exact matches included in criterion not met.

Task: Here's an entry: CC(C)OC(=O)CCN[C@]1(c2ccccc2Cl)CCCCC1=O.Cl [(S)-C2iPr] . Is its PWR = 1 Dose, head-to-head ratio to ketamine below 2?
Result: criterion not met

Task: Here's an entry: CC(C)OC(=O)CCNC1(c2ccccc2Cl)CCCCC1=O.Cl (racemic) [rac-C2iPr] . Is its PWR = 1 Dose, head-to-head ratio to ketamine below 2?
Result: criterion met

###

test system: adult female Sprague-Dawley rats; experiment: rat infusion study: loss/recovery of righting reflex and walk (anaesthetic effect); type: in vivo; settings: rat infusion study, discussion
readout.label: potency (in words)

INSERT INTO assay_data (compound, target_of_assay, readout_label, observed) VALUES
  ('CCOC(=O)CCN[C@]1(c2ccccc2Cl)CCCCC1=O.Cl [(S)-C2Et]', 'adult female Sprague-Dawley rats', 'potency (in words)', 'only half as potent'),
  ('CC(C)OC(=O)CCN[C@]1(c2ccccc2Cl)CCCCC1=O.Cl [(S)-C2iPr]', 'adult female Sprague-Dawley rats', 'potency (in words)', 'only half as potent'),
  ('COC(=O)CCCCN(C)C1(c2ccccc2Cl)CCCCC1=O (stereo not drawn)', 'adult female Sprague-Dawley rats', 'potency (in words)', 'less potent'),
  ('CCOC(=O)CCCN(C)C1(c2ccccc2Cl)CCCCC1=O.Cl (stereo not drawn)', 'adult female Sprague-Dawley rats', 'potency (in words)', 'less potent');

# credit: patent US10239825B2
